Tested on: A498 renal
experiment.notes: NCI-60 one-dose screen, 48 h (100 = growth as untreated, 0 = no growth, -100 = all killed)
test.parameters: 10 µM unless noted
Experimental: Growth inhibition of the A498 human tumor cell line is measured as a screen for anti-cancer activity. Cells are grown in 96 well plates and exposed to the test compound for 48 hours. Compounds are tested at a single concentration, which is 10^-5 M for most compounds. The reported endpoint is percent growth (GI% or GIPRCNT), where numbers from 0 - 100% represent growth inhibition, and numbers from -100% - 0 represent cell death. For example, a value of 40 represents 60% growth inhibition. […]
About 83,000 compounds went through this panel and 20% of them were active in at least one assay; those are over-represented in the sample as a whole.
# growth per entry
# output: bare number, implied unit %

Example results:
{"columns": ["compound", "display.unit", "growth"],
 "data": [
  ["COc1ccc2c(c1)C1=NN(C(=O)CO)[C@H](c3ccc(OC(F)(F)F)cc3)[C@@H]1CC2", "%", 94.4],
  ["COc1ccc(C(=O)OC2C(OC3C(O)COC(O[C@H]4C[C@H]5[C@@H]6CC=C7C[C@@H](O)CC[C@]7(C)[C@H]6CC[C@]5(C)[C@H]4[C@H](C)C(=O)CCC(C)C)C3OC(C)=O)OCC(O)C2O)cc1 (some centres not stated)", "%", -82.2],
  ["NC(=S)N1N=C(c2ccc(Cl)cc2)CC1c1cc2ccccc2[nH]c1=O (configuration not stated)", "%", 89.5]
]}

input: Form field: reported growth of CCN(CC)C(=O)O/N=C(/C)c1ccccc1
output: 103

input: What does the record list as growth for O=C1OCC2=C1C(c1ccccc1)c1cc3c(cc1N2CCO)CCC3 (configuration not stated) ?
output: -21.5

input: Sample N/C(=N\OC(=O)c1ccccc1)C(Cc1ccccc1)C(=O)NOC(=O)c1ccccc1 (configuration not stated) — what was its growth?
output: 59.5

input: I would be grateful if you could share the reported growth for C/C(=N\NC(=O)CSc1nc2ccccc2c(=O)n1CCc1ccc(S(N)(=O)=O)cc1)c1ccc(Br)cc1 .
output: 97.5

input: Which growth value belongs to O=C1CCCN1C(O)CCN(Cc1ccccc1)Cc1ccc(Cl)cc1 (configuration not stated) ?
output: 109

Entry source: PubChem BioAssay (NCI)
